# SYSTEM NAME: ROCK2 (human) (UniProt O75116)
# Sequence (O75116 whole entry, looked up): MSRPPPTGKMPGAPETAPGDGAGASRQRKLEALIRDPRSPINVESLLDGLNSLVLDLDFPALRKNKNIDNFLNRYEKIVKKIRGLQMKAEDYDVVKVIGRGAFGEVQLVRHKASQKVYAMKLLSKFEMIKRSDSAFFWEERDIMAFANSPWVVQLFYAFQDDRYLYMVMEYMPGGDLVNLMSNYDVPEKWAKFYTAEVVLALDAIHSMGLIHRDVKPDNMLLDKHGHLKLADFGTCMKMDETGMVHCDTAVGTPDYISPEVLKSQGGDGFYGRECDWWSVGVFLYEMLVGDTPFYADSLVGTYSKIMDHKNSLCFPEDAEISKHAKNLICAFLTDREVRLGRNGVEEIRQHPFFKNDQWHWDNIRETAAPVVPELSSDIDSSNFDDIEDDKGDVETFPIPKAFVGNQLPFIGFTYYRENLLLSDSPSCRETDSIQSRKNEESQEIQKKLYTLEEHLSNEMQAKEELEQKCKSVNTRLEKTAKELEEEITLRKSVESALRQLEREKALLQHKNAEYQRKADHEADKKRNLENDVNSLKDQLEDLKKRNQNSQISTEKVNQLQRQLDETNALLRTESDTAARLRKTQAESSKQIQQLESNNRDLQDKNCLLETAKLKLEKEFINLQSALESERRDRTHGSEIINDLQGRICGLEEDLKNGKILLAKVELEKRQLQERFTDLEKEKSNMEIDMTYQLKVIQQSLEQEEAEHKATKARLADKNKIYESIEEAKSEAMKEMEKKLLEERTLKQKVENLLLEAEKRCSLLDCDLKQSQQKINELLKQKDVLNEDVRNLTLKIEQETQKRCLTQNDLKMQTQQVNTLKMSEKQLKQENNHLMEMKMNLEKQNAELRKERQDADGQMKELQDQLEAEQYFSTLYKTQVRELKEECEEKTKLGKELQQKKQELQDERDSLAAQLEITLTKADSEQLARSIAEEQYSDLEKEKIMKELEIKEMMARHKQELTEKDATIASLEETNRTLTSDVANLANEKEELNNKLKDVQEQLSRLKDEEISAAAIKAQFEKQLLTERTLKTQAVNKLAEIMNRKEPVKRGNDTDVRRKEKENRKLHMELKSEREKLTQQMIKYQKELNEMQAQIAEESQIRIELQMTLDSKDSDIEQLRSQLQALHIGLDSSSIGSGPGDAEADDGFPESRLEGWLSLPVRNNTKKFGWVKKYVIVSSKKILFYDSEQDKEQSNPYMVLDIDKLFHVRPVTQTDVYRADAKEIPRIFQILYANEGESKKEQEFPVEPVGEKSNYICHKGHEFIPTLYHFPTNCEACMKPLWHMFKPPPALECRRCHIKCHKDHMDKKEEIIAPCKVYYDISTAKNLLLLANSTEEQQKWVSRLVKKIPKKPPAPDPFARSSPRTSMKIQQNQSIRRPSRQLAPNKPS
# ASSAY OVERVIEW: KINOMEscan competition binding
# CONDITION SUMMARY: compound 10.0 µM
REPORTED PROPERTY: kinase still bound, per cent of control (%)
Answers are plain numbers, in %.

SMILES STR	MEASUREMENT
COc1cc2ncnc(Nc3cccc(Cl)c3)c2cc1OC	39
CNC(=O)Nc1ccc(-c2nc(N3CC4CCC(C3)O4)c3cnn(C4CCC5(CC4)OCCO5)c3n2)cc1	100
COc1cc(N2CCC(C(N)=O)CC2)ccc1Nc1nc(N)c(Cl)c(Nc2ccccc2S(=O)(=O)C(C)C)n1	100

Can you give me kinase still bound, per cent of control for all of these, one by one?
1. COc1cc2c(Nc3ccc(NC(=O)c4ccccc4)cc3)ncnc2cc1OCCCN1CCOCC1
2. CCN(CCO)CCCOc1ccc2c(Nc3cc(CC(=O)Nc4cccc(F)c4)[nH]n3)ncnc2c1
3. O=c1[nH]c2ccccc2n1C1CCN(Cc2ccc(-c3nc4cc5[nH]cnc5cc4nc3-c3ccccc3)cc2)CC1

stdout:
[34, 66, 73]

Dear colleague, could you please provide kinase still bound, per cent of control for the compounds listed below?
1. CCCS(=O)(=O)Nc1ccc(F)c(C(=O)c2c[nH]c3ncc(Cl)cc23)c1F
2. CCOc1cc(N2CCC(O)CC2)ccc1Nc1ncc2c(n1)N(C)c1ccccc1C(=O)N2C

stdout:
1: 81; 2: 100

----------
# SYSTEM NAME: UniProt:Q13237
# Sequence (Q13237 whole entry, looked up): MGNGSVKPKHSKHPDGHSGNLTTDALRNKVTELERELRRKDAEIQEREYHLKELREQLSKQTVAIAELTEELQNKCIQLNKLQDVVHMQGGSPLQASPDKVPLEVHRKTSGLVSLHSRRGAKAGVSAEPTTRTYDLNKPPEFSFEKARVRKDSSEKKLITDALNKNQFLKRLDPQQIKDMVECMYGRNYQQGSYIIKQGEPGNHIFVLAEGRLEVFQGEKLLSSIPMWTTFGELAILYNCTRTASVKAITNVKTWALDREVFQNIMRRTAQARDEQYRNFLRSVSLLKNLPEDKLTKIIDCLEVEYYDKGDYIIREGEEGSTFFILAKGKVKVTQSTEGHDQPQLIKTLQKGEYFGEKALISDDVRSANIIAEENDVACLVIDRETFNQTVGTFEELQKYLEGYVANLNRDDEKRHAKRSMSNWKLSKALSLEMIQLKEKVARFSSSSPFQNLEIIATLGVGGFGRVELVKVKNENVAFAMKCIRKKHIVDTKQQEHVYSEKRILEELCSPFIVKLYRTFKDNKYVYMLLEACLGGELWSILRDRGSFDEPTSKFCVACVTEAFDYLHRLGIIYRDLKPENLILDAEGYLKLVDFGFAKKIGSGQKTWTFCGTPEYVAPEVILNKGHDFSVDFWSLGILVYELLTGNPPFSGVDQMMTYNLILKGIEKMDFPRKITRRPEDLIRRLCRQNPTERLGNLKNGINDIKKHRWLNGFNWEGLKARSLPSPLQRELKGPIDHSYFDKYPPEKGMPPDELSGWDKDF
# ASSAY OVERVIEW: KINOMEscan competition binding
# CONDITION SUMMARY: compound 10.0 µM
REPORTED PROPERTY: kinase still bound, per cent of control (%)
Give bare numbers, in %.

Below: 3 compounds and their reported kinase still bound, per cent of control.
COMPOUND	SYSTEM NAME	kinase still bound, per cent of control (%)
N#Cc1cc(-c2ccnc(Nc3ccc(-n4cnc(-c5cccnc5)n4)cc3)n2)cc(N2CCOCC2)c1	UniProt:Q13237	74
CC1=C(C(=O)Nc2cc3cn[nH]c3cc2F)C(c2ccc(C(F)(F)F)cc2)CC(=O)N1 (centres undefined)	UniProt:Q13237	29
COc1ccc(N(C(=O)Oc2cc(C(=O)Nc3cccc(C(F)(F)F)c3)ccc2C)c2ccnc(Nc3ccc(N4CCN(C)CC4)cc3)n2)c(OC)c1	UniProt:Q13237	100

// next entry
stdin: Form field: reported kinase still bound, per cent of control of Cc1cn(-c2cc(C(=O)Nc3ccc(C)c(NC(=O)c4ccno4)c3)cc(C(F)(F)F)c2)cn1
stdout: 100

----------
Assignment: determine reported kinase still bound, per cent of control for the given molecules.
# SYSTEM NAME: UniProtKB Q06187
# Sequence (Q06187 whole entry, looked up): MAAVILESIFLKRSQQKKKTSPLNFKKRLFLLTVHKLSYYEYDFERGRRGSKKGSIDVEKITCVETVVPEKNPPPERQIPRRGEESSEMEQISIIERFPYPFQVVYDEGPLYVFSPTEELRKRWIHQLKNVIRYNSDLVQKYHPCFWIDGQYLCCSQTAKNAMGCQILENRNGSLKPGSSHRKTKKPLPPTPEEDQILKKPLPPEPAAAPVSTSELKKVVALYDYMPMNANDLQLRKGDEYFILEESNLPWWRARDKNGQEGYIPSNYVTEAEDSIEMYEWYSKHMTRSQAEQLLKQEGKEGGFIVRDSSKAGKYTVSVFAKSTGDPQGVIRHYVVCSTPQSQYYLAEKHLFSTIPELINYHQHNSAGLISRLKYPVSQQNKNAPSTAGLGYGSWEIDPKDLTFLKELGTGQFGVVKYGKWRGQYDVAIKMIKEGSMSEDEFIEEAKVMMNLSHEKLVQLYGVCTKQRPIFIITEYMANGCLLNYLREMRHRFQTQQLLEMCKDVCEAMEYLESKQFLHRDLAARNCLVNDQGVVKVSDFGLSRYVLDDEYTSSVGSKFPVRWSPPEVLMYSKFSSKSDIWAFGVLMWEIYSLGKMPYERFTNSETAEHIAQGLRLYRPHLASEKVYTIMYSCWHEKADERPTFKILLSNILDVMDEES
# ASSAY OVERVIEW: KINOMEscan competition binding
# CONDITION SUMMARY: compound 10.0 µM
One number for each entry, in %.

Some molecules with known kinase still bound, per cent of control results, for comparison:
MOLECULE	SYSTEM NAME	VALUE UNITS	MEASUREMENT
CNC(=O)Nc1ccc(-c2nc(N3CC4CCC(C3)O4)c3cnn(C4CCC5(CC4)OCCO5)c3n2)cc1	UniProtKB Q06187	%	90
O=c1[nH]c2ccccc2n1C1CCN(Cc2ccc(-c3nc4cc5[nH]cnc5cc4nc3-c3ccccc3)cc2)CC1	UniProtKB Q06187	%	100
COc1cc2ncnc(Nc3cccc(Cl)c3)c2cc1OC	UniProtKB Q06187	%	70
CCCS(=O)(=O)Nc1ccc(F)c(C(=O)c2c[nH]c3ncc(Cl)cc23)c1F	UniProtKB Q06187	%	52

Would you mind listing kinase still bound, per cent of control for each of the following molecules?
1. CC(=O)c1c(C)c2cnc(Nc3ccc(N4CCNCC4)cn3)nc2n(C2CCCC2)c1=O
2. N#C/C(=C1/Nc2ccccc2S1)c1ccnc(NCCc2cccnc2)n1
3. COc1cc(C)c(Sc2cnc(NC(=O)c3ccc(CNC(C)C(C)C)cc3)s2)cc1C(=O)N1CCN(C(C)=O)CC1 (centres undefined)

stdout:
1. 13
2. 77
3. 2.6

List the reported kinase still bound, per cent of control of each molecule below.
1. C=CC(=O)Nc1ccc(C(=O)c2sc(Nc3ccc(N4CCN(C)CC4)cc3OC)nc2N)cc1
2. COc1cc2c(Nc3ccc(NC(=O)c4ccccc4)cc3)ncnc2cc1OCCCN1CCOCC1

stdout:
1. 94
2. 7.3

----------
# SYSTEM NAME: RPS6KA2 KD1 (human)
# ASSAY OVERVIEW: KINOMEscan competition binding
# CONDITION SUMMARY: compound 10.0 µM
Give measured kinase still bound, per cent of control for each item. Keep answers brief.
Numbers only, in %.

Look over these answered cases.
MOLECULE	REPORTED PROPERTY	VALUE UNITS	MEASUREMENT
COc1cc(N2CCC(C(N)=O)CC2)ccc1Nc1nc(N)c(Cl)c(Nc2ccccc2S(=O)(=O)C(C)C)n1	kinase still bound, per cent of control	%	100
CCc1nc(-c2cccc(C)c2)c(-c2ccnc(NC(=O)c3ccccc3)c2)s1	kinase still bound, per cent of control	%	100
C=CC(=O)Nc1ccc(C(=O)c2sc(Nc3ccc(N4CCN(C)CC4)cc3OC)nc2N)cc1	kinase still bound, per cent of control	%	97
N#Cc1cc(-c2ccnc(Nc3ccc(-n4cnc(-c5cccnc5)n4)cc3)n2)cc(N2CCOCC2)c1	kinase still bound, per cent of control	%	73
Cc1cn(-c2cc(C(=O)Nc3ccc(C)c(NC(=O)c4ccno4)c3)cc(C(F)(F)F)c2)cn1	kinase still bound, per cent of control	%	100

Can you give me kinase still bound, per cent of control for all of these, one by one?
1. CCN(CCO)CCCOc1ccc2c(Nc3cc(CC(=O)Nc4cccc(F)c4)[nH]n3)ncnc2c1
2. CC(=O)c1c(C)c2cnc(Nc3ccc(N4CCNCC4)cn3)nc2n(C2CCCC2)c1=O

stdout:
[80, 14]

Fill in kinase still bound, per cent of control for each of the 2 molecules listed.
1. CNC(=O)Nc1ccc(-c2nc(N3CC4CCC(C3)O4)c3cnn(C4CCC5(CC4)OCCO5)c3n2)cc1
2. CC1=C(C(=O)Nc2cc3cn[nH]c3cc2F)C(c2ccc(C(F)(F)F)cc2)CC(=O)N1 (stereo not drawn)

stdout:
1. 100
2. 95

Dear reader, for each entry below, please note its kinase still bound, per cent of control.
1. COc1cc2ncnc(Nc3cccc(Cl)c3)c2cc1OC
2. COc1cc(C)c(Sc2cnc(NC(=O)c3ccc(CNC(C)C(C)C)cc3)s2)cc1C(=O)N1CCN(C(C)=O)CC1 (stereo not drawn)

stdout:
1: 85; 2: 100

For every listed record, write down its kinase still bound, per cent of control.
1. CCCS(=O)(=O)Nc1ccc(F)c(C(=O)c2c[nH]c3ncc(Cl)cc23)c1F
2. COc1ccc(N(C(=O)Oc2cc(C(=O)Nc3cccc(C(F)(F)F)c3)ccc2C)c2ccnc(Nc3ccc(N4CCN(C)CC4)cc3)n2)c(OC)c1
3. CCOc1cc(N2CCC(O)CC2)ccc1Nc1ncc2c(n1)N(C)c1ccccc1C(=O)N2C
4. CCN1CCN(Cc2ccc(NC(=O)c3ccc(C)c(/C=C/c4cnc5[nH]ccc5c4OC)c3)cc2C(F)(F)F)CC1

stdout:
1. 67
2. 100
3. 100
4. 2.7

I have 3 molecules here; please give me kinase still bound, per cent of control for each one.
1. O=c1[nH]c2ccccc2n1C1CCN(Cc2ccc(-c3nc4cc5[nH]cnc5cc4nc3-c3ccccc3)cc2)CC1
2. N#C/C(=C1/Nc2ccccc2S1)c1ccnc(NCCc2cccnc2)n1
3. COc1cc2c(Nc3ccc(NC(=O)c4ccccc4)cc3)ncnc2cc1OCCCN1CCOCC1

stdout:
1. 51
2. 100
3. 84

----------
# Tested on: BMX (human), P51813 [V600E]
# Sequence (P51813 whole entry, looked up, stated change not applied): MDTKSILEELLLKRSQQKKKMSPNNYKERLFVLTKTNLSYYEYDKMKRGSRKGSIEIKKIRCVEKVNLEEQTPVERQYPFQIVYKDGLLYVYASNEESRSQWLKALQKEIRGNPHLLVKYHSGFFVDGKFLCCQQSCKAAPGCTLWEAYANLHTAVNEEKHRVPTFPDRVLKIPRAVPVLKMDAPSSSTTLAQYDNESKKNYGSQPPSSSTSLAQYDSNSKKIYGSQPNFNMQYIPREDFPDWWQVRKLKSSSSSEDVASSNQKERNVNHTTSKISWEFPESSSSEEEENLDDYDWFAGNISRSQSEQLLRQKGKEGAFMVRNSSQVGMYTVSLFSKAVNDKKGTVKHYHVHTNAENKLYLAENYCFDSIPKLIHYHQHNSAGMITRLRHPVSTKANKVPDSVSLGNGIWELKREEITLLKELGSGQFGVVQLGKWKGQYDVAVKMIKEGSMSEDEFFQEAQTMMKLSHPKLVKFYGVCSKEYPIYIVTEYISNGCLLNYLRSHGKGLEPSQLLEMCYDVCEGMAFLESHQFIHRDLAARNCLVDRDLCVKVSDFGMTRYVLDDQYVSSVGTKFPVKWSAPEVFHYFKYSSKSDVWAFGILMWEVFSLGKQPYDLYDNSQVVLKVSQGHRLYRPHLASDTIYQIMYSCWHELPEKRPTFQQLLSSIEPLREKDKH
# ASSAY OVERVIEW: KINOMEscan competition binding
# CONDITION SUMMARY: compound 10.0 µM
API: label(entry) gives True if the entry's kinase still bound, per cent of control is strictly smaller than 60%; on equality or larger values it gives False.

stdin: Bench note: check whether C=CC(=O)Nc1cccc(Nc2nc(N[C@H]3CC[C@H](N(C)C)CC3)nc3c2ncn3C(C)C)c1 shows kinase still bound, per cent of control below 60%
stdout: False

stdin: Bench note: check whether COc1ccc(N(C(=O)Oc2cc(C(=O)Nc3cccc(C(F)(F)F)c3)ccc2C)c2ccnc(Nc3ccc(N4CCN(C)CC4)cc3)n2)c(OC)c1 shows kinase still bound, per cent of control below 60%
stdout: True

stdin: Report whether reported kinase still bound, per cent of control is lower than 60% (strictly) for CN(C)C/C=C/C(=O)Nc1ccc(C(=O)Nc2cccc(Nc3nccc(-c4cccnc4)n3)c2)cc1
stdout: False

----------
# SYSTEM NAME: DAPK2 (human)
# ASSAY OVERVIEW: KINOMEscan competition binding
# CONDITION SUMMARY: compound 10.0 µM
REPORTED PROPERTY: kinase still bound, per cent of control (%)
One number for each entry, in %.

MOLECULE	SYSTEM NAME	kinase still bound, per cent of control, %
CCN1CCN(Cc2ccc(NC(=O)c3ccc(C)c(/C=C/c4cnc5[nH]ccc5c4OC)c3)cc2C(F)(F)F)CC1	DAPK2 (human)	100
CCc1nc(-c2cccc(C)c2)c(-c2ccnc(NC(=O)c3ccccc3)c2)s1	DAPK2 (human)	88

Below are some molecules; for each one, tell me its kinase still bound, per cent of control.
1. CCOc1cc(N2CCC(O)CC2)ccc1Nc1ncc2c(n1)N(C)c1ccccc1C(=O)N2C
2. COc1ccc(N(C(=O)Oc2cc(C(=O)Nc3cccc(C(F)(F)F)c3)ccc2C)c2ccnc(Nc3ccc(N4CCN(C)CC4)cc3)n2)c(OC)c1
3. COc1cc(C)c(Sc2cnc(NC(=O)c3ccc(CNC(C)C(C)C)cc3)s2)cc1C(=O)N1CCN(C(C)=O)CC1 (stereo not drawn)
4. CCN(CCO)CCCOc1ccc2c(Nc3cc(CC(=O)Nc4cccc(F)c4)[nH]n3)ncnc2c1

stdout:
1. 100
2. 100
3. 28
4. 89

Below is a list of molecules. For each, state its recorded kinase still bound, per cent of control.
1. COc1cc(N2CCC(C(N)=O)CC2)ccc1Nc1nc(N)c(Cl)c(Nc2ccccc2S(=O)(=O)C(C)C)n1
2. N#C/C(=C1/Nc2ccccc2S1)c1ccnc(NCCc2cccnc2)n1
3. COc1cc2ncnc(Nc3cccc(Cl)c3)c2cc1OC
4. C=CC(=O)Nc1ccc(C(=O)c2sc(Nc3ccc(N4CCN(C)CC4)cc3OC)nc2N)cc1
5. CCCS(=O)(=O)Nc1ccc(F)c(C(=O)c2c[nH]c3ncc(Cl)cc23)c1F
6. N#Cc1cc(-c2ccnc(Nc3ccc(-n4cnc(-c5cccnc5)n4)cc3)n2)cc(N2CCOCC2)c1
7. CNC(=O)Nc1ccc(-c2nc(N3CC4CCC(C3)O4)c3cnn(C4CCC5(CC4)OCCO5)c3n2)cc1

stdout:
1: 100; 2: 34; 3: 60; 4: 2.8; 5: 80; 6: 96; 7: 100

Batch: kinase still bound, per cent of control for all items listed.
1. COc1cc2c(Nc3ccc(NC(=O)c4ccccc4)cc3)ncnc2cc1OCCCN1CCOCC1
2. O=c1[nH]c2ccccc2n1C1CCN(Cc2ccc(-c3nc4cc5[nH]cnc5cc4nc3-c3ccccc3)cc2)CC1
3. CC(=O)c1c(C)c2cnc(Nc3ccc(N4CCNCC4)cn3)nc2n(C2CCCC2)c1=O
4. CC1=C(C(=O)Nc2cc3cn[nH]c3cc2F)C(c2ccc(C(F)(F)F)cc2)CC(=O)N1 (stereo not drawn)
5. Cc1cn(-c2cc(C(=O)Nc3ccc(C)c(NC(=O)c4ccno4)c3)cc(C(F)(F)F)c2)cn1

stdout:
1: 90; 2: 100; 3: 2.4; 4: 92; 5: 100

FYI, the data here is from the kinase profiling compilation of Christmann-Franck et al. (2016).
